biological target: UniProtKB P49862; assay: Inhibition of KLK7 (unknown origin) assessed as inhibition of release of AMC fluorescent product using MeO-Suc-RPY-AMC as substrate at 10 uM incubated for 30 mins by microplate reader relative to control
Sequence (P49862 30-253 limits assumed): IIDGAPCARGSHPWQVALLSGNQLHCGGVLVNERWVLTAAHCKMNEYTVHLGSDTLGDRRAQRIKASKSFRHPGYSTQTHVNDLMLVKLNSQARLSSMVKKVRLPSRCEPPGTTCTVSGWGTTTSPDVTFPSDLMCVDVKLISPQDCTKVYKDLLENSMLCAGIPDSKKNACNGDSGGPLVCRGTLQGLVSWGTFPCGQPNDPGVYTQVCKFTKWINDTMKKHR
QUANTITY: inhibition (%)
Numbers only here, please. The scale is %.

**Query** Record lookup: for UniProtKB P49862, what inhibition belongs to `CC(C)c1ccc(C(=O)Nc2ccc(CN)cc2)c(O)c1` ?
**Result** 7

**Query** Same read-out for `CC(C)(C)c1ccc(O)c(C(=O)Nc2ccc(CN)cc2)c1.Cl` ?
**Result** 9

**Query** Same read-out for `Cc1ccc(C(=O)Nc2ccc(CN)cc2)c(O)c1.Cl` ?
**Result** 12

**Query** Same read-out for `Cc1ccc2ccc(C(=O)Nc3ccc(CN)cc3)c(O)c2c1` ?
**Result** 11

**Query** Same read-out for `Cl.NCc1ccc(NC(=O)c2cc3ccccc3cc2O)cc1` ?
**Result** 6

**Query** Same read-out for `COc1ccc2c(O)c(C(=O)Nc3ccc(CN)cc3)ccc2c1` ?
**Result** 10

**Query** Same read-out for `Cl.NCc1ccc(NC(=O)c2ccc3ccccc3c2O)cc1` ?
**Result** 0

---

target: Kallikrein-6 (Homo sapiens, UniProt Q92876); assay: Inhibition of KLK6 (unknown origin) assessed as release of AMC fluorescent product using Boc-QAR-AMC as substrate incubated for 30 mins by microplate reader; details: read-out: IC50
Task for the reader: assign each of the following molecules its reported IC50.
Numbers only here, please. The scale is µM.

**Query** Record lookup: for Kallikrein-6 (Homo sapiens, UniProt Q92876), what IC50 belongs to `CC(C)c1ccc(C(=O)Nc2ccc(CN)cc2)c(O)c1` ?
**Result** 3.63

**Query** Same read-out for `Cl.NCc1ccc(NC(=O)c2ccc3ccccc3c2O)cc1` ?
**Result** 6.9

**Query** Same read-out for `Cc1ccc(C(=O)Nc2ccc(CN)cc2)c(O)c1.Cl` ?
**Result** 2.37

---

biological target: Trypsin (Homo sapiens) (UniProt P07477+P07478+P35030); assay: Inhibition of Trypsin (unknown origin) assessed as inhibition of release of AMC fluorescent product using […] as substrate at 10 uM incubated for 30 mins by microplate reader relative to control; format: protein assay
Task for the reader: assign each of the following compounds its reported inhibition.
Include the unit right after the number.

**Query** What does the record list as inhibition for `Cc1ccc(C(=O)Nc2ccc(CN)cc2)c(O)c1.Cl` ?
**Result** 15%

**Query** Same read-out for `Cl.NCc1ccc(NC(=O)c2ccc3ccccc3c2O)cc1` ?
**Result** 34%

**Query** Same read-out for `COc1ccc2c(O)c(C(=O)Nc3ccc(CN)cc3)ccc2c1` ?
**Result** 41%

**Query** Same read-out for `CC(C)(C)c1ccc(O)c(C(=O)Nc2ccc(CN)cc2)c1.Cl` ?
**Result** 5%

**Query** Same read-out for `Cl.NCc1ccc(NC(=O)c2cc3ccccc3cc2O)cc1` ?
**Result** 25%

**Query** Same read-out for `CC(C)c1ccc(C(=O)Nc2ccc(CN)cc2)c(O)c1` ?
**Result** 91%

**Query** Same read-out for `Cc1ccc2ccc(C(=O)Nc3ccc(CN)cc3)c(O)c2c1` ?
**Result** 32%

---

target: Kallikrein-6 (Homo sapiens, UniProt Q92876); assay: Inhibition of KLK6 (unknown origin) assessed as release of AMC fluorescent product using Boc-QAR-AMC as substrate at 10 uM incubated for 30 mins by microplate reader
QUANTITY: inhibition
Include the unit right after the number.

**Query** Record lookup: for Kallikrein-6 (Homo sapiens, UniProt Q92876), what inhibition belongs to `COc1ccc(O)c(C(=O)Nc2ccc(CN)cc2)c1` ?
**Result** 21.8%

**Query** Same read-out for `Cc1cccc(O)c1C(=O)Nc1ccc(CN)cc1` ?
**Result** 7.27%

**Query** Same read-out for `NCc1ccc(NC(=O)c2ccc(C(F)(F)F)cc2O)cc1` ?
**Result** 47%

**Query** Same read-out for `NCc1ccc(NC(=O)c2ncccc2O)cc1` ?
**Result** 8.86%

**Query** Same read-out for `NCc1ccc(NC(=O)c2ccccc2O)cc1` ?
**Result** 14.8%

**Query** Same read-out for `Cc1ccc(O)c(C(=O)Nc2ccc(CN)cc2)c1` ?
**Result** 26.5%

**Query** Same read-out for `NCc1ccc(NC(=O)c2cc(Br)ccc2O)cc1` ?
**Result** 30%

**Query** Same read-out for `Cc1cccc(C(=O)Nc2ccc(CN)cc2)c1O` ?
**Result** 20%

**Query** Same read-out for `NCc1ccc(NC(=O)c2ccc3ccccc3c2)cc1` ?
**Result** 19.8%
